# target.or.test.system: recombinant CYP3A4+b5 enzyme (Supersomes®) (Homo sapiens, UniProt P08684)
# Construct: purchased BD Biosciences (Woburn, Mass.)
# Sequence (P08684 2-503 limits assumed): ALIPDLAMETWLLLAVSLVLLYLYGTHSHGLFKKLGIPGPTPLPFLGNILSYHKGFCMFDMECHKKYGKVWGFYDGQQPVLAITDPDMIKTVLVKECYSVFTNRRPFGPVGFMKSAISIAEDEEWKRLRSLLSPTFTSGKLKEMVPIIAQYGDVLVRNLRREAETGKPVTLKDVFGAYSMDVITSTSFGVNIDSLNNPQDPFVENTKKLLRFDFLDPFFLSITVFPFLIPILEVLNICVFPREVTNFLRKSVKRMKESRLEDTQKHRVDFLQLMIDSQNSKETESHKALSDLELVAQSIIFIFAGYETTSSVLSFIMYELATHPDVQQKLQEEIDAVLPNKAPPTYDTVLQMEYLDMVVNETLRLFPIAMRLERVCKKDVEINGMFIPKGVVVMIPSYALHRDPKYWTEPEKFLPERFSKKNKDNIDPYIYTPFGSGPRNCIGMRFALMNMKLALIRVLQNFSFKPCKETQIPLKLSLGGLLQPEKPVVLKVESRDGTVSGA
# assay.name: Kiapp against recombinant CYP3A4 enzyme (Supersomes), BFC substrate
# Assay type: biochemical
# stated.conditions: recombinant CYP3A4+b5 (BD Biosciences), 5 uM BFC, 200 uM NADPH, pre-incubation at least 30 minutes, pH 7.0, room temperature
measured.quantity: Ki (µM)

Past entries and their recorded results:
CS(=O)(=O)NC1CCN(C(=O)Cn2nc(-c3ccncc3)cc2Cc2ccc(F)cc2)CC1; 0.0057
CS(=O)(=O)NC1CCN(C(=O)Cn2nc(-c3c[nH]cn3)cc2Cc2ccc(F)cc2)CC1; 0.166
CN(C(=O)Cn1nc(-c2c[nH]cn2)cc1Cc1ccc(F)cc1)[C@H]1CC[C@H](O)CC1; 0.167
O=C(Cn1nc(-c2ccncc2)cc1Cc1ccc(F)cc1)N[C@H]1CC[C@@H](O)CC1; 0.0059

1. O=C(Cn1nc(-c2ccncc2)cc1Cc1ccc(F)cc1)N1CCCC(N2CCOCC2)CC1 (centres unmarked)
2. CC(C)(CN1CCOCC1)NC(=O)Cn1nc(-c2ccnnc2)cc1Cc1ccc(F)cc1
3. CC(=O)NC(C)(C)CNC(=O)Cn1nc(-c2ccncc2)cc1Cc1ccc(F)cc1
4. CC(C)NC(=O)N(C)C1CCN(C(=O)Cn2nc(-c3ccncc3)cc2Cc2ccc(F)cc2)CC1
### Prompt # ascending order, key=Ki Your task in answering is to list the labels in the requested order.
### Response 1, 4, 3, 2
(1: 0.0061 µM, 4: 0.0139 µM, 3: 0.0237 µM, 2: 0.174 µM)
